The origin of these recorded values is patent US20240408169A1.

assay_target: CyclinE1/CDK2 (Homo sapiens)
Construct: purchased Eurofins, discovery 14-475
method_summary: Fluorescence Polarization (FP) competitive binding assay, Cyclin E1/Cdk2;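 also: readings taken after two-hour equilibration at room temperature in HEPES buffer with NaCl, DTT, NP-40 and BSA, IC50 fitted from eight-concentration serial dilution series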
assay_conditions: 10 nM Cyclin E1/Cdk2, 2 nM FAM probe; average of 2-3 independent experiments; read-out: Cyclin E FP IC50
*1 amine or outer side, *2 acyl side, *3 side chain or, on linkers, in order; H or OH if unused. Where a SMILES comes first, the peptide text is derived from it. Bridges are numbered along the chain shown (N, C = ends). [ ]: non-standard residue; d: D form. The star is where a group is joined. X78 = CN1CCN(C2(c3ccc(-c4ccc(Cl)cc4C[C@@H](C(=O)[*:2])N(C)[*:1])cc3)CC2)CC1; NMehhhLys(Me) = CN([C@@H](CCCCCCCN(C)[*:3])C(=O)[*:2])[*:1]; NMe(hhhLys) = CN([C@@H](CCCCCCCN[*:3])C(=O)[*:2])[*:1]; X28 = CN([C@@H](Cc1cc(Cl)cnc1OC1CCC1)C(=O)[*:2])[*:1]; cBuCO(3,3-F2-1-CF3) = O=C(C1(C(F)(F)F)CC(F)(F)C1)*; X133 = Cc1ncc(Cl)cc1C[C@@H](C(=O)[*:2])N(C)[*:1]; Pro(trans-4-F) = O=C(O)[C@@H]1C[C@@H](F)CN1; Gly(cPr) = N[C@H](C(=O)O)C1CC1
reported_metric: IC50 (nM)
Numbers only, in nM.

// each compound listed below needs its IC50
1. CC(C)C[C@@H]1NC(=O)[C@@H](N(C)C(=O)[C@@H](NC(=O)[C@@H]2C[C@@H](F)CN2C(=O)C2(C(F)(F)F)CC(F)(F)C2)C2CC2)CCCCCCCN(C)C(=O)[C@H](Cc2cc(Cl)ccc2-c2ccc(C3(N4CCN(C)CC4)CC3)cc2)N(C)C1=O [Example 381] ({cBuCO(3,3-F2-1-CF3)}-[Pro(trans-4-F)][Gly(cPr)][NMehhhLys(Me)]L[X78]; lactam 3-C)
2. CC(C)C[C@@H]1NC(=O)[C@@H](N(C)C(=O)[C@@H](NC(=O)[C@@H]2C[C@@H](F)CN2C(=O)C2(C(F)(F)F)CC(F)(F)C2)C2CC2)CCCCCCCNC(=O)[C@H](Cc2cc(Cl)cnc2OC2CCC2)N(C)C1=O [Example 142] ({cBuCO(3,3-F2-1-CF3)}-[Pro(trans-4-F)][Gly(cPr)][NMe(hhhLys)]L[X28]; lactam 3-C)
3. Cc1ncc(Cl)cc1C[C@H]1C(=O)N(C)CCCCCCC[C@H](N(C)C(=O)[C@@H](NC(=O)[C@@H]2C[C@@H](F)CN2C(=O)C2(C(F)(F)F)CC(F)(F)C2)C2CC2)C(=O)N[C@@H](CC(C)C)C(=O)N1C [Example 322] ({cBuCO(3,3-F2-1-CF3)}-[Pro(trans-4-F)][Gly(cPr)][NMehhhLys(Me)]L[X133]; lactam 3-C)

Result:
1. 1310
2. 150
3. 530
